# Target entity: Cytochrome P450 2D6 (Homo sapiens);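 note: CYP2D6 member of a cytochrome P450 panel assay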
# Sequence (P10635 whole entry): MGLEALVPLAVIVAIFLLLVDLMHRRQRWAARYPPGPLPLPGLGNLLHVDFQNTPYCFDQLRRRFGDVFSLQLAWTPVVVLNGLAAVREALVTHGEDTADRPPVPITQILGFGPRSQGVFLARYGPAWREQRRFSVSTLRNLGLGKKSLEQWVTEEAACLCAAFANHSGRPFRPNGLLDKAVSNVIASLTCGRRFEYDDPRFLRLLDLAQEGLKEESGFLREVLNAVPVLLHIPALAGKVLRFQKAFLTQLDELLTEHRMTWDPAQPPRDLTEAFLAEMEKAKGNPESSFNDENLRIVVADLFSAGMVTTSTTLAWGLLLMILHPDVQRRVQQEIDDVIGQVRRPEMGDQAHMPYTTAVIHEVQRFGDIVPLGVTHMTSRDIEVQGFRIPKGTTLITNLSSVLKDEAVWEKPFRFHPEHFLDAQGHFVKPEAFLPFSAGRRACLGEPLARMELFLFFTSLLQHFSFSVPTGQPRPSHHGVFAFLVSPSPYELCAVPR
Endpoint name: AC50

# Compound, Observed
rows = [
    ("c1cncc(-c2ccc3ncnc(NCCN4CCOCC4)c3c2)c1", "39.8 µM (inconclusive)"),
    ("CCCOc1ccc(N2C(=O)CC(SC(=N)N/N=C(\\C)c3cccs3)C2=O)cc1 (stereo not given)", "15.8 µM (inconclusive)"),
    ("O=C(O)[C@H]1CN[C@H](C(=O)O)C1", "39.8 µM (inconclusive)"),
    ("CCCCOC(=O)c1ccc(O)cc1 [BUTYLPARABEN]", "12.6 µM (inconclusive)"),
]

# input Can you look up the measured AC50 of O=C1CC(N2CCN(CCc3ccccn3)CC2)C(=O)N1c1ccc(Cl)cc1 (stereo not given) for me?
# output 12.6 µM (inconclusive)

---

Each record here notes measured EC50.
# Tested on: BJ
# Measurement protocol: BJ-TERT-LT-ST fibroblast viability loss – cell-based, RAS-independent, luminescence, dose response (AID 1935);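 note: BJ fibroblasts immortalized with TERT plus LT and ST oncogenes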
# Format: functional
# Condition label: Homo sapiens

These recorded examples may help you get a feel for the data.
# Record smiles, EC50
rows = [
    ("CCCc1nnc(NC(=O)CCC(=O)N2CCN(Cc3ccc(OC)c(F)c3)CC2)s1", "> 150000 nM (not active)"),
    ("COc1ccccc1C(=O)N1CCN(c2cccc(Cl)c2)CC1", "833 nM (inconclusive)"),
    ("C/C(=N\\NC(=O)c1c([N+](=O)[O-])c(C)nn1C)c1ccc(NC(=O)C2CCCC2)cc1", "918 nM (inconclusive)"),
]

// moving on: another record for EC50
# input Can you look up the measured EC50 of Cc1ccc(-c2cc(C(=O)N/N=C/c3c(C)nn(-c4ccccc4)c3C)[nH]n2)cc1 for me?
# output 624 nM (inconclusive)

---

# Target entity: Cytochrome P450 3A4 (Homo sapiens, UniProt P08684);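 note: confirmatory qHTS run detecting inhibitors and substrates of CYP3A4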
# Sequence (P08684 whole entry): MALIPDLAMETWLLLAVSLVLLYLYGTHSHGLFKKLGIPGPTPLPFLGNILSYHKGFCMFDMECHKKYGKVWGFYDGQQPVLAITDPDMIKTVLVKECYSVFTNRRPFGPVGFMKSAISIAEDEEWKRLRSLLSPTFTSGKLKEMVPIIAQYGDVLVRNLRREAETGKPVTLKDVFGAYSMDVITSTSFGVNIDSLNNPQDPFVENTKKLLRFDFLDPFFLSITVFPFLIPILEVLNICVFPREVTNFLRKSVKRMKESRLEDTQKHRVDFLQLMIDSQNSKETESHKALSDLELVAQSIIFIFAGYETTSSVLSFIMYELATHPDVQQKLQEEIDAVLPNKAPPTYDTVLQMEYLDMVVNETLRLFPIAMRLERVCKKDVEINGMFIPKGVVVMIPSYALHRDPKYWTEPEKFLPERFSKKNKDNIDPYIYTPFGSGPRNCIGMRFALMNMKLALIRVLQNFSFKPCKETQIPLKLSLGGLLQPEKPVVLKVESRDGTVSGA
# Condition label: Potency
Endpoint name: AC50

These recorded examples may help you get a feel for the data.
# Compound, AC50
rows = [
    ("COC(=O)c1cccc(C23CC4(C2)[C@H](CN(Cc2ccc(-c5ccccc5)cc2)[C@@H]4c2ccccc2)C3c2ccccc2)c1 (some centres undefined)", "15.8 µM (inconclusive)"),
    ("CC(=O)N1CC=CC1(CC(C)C)C(=O)NCC1CC1 (centres undefined)", "31.6 µM (inconclusive)"),
    ("COc1ccc2c(=O)c(-c3ccccc3)coc2c1", "39.8 µM (inconclusive)"),
]

// moving on: another record for AC50
# input Can you look up the measured AC50 of Cc1ccc(N)c(N)c1 for me?
# output 25.1 µM (inconclusive)

---

# Measurement protocol: fluconazole-exposed Candida albicans growth modulators – fluorescence, retest, confirmation (AID 2467)
# Type: functional, cell-based
Active and inactive are the calls of the source.
Each record here notes measured EC50.

These recorded examples may help you get a feel for the data.
# Molecule, EC50
data = [
    ("COC(=O)c1ccc(COc2ccc(/C=C(\\C#N)c3nc4ccccc4[nH]3)cc2OC)o1", "3830 nM (active)"),
    ("COCCn1c(=O)[nH]c(=O)c2cc(C(=O)c3cc(Cl)ccc3O)cnc21", "1120 nM (active)"),
    ("CCCC(=O)NC(c1cccs1)c1cc(Cl)c2cccnc2c1O (centres undefined)", "707 nM (active)"),
]

// moving on: another record for EC50
# input Can you look up the measured EC50 of Cc1ccc(SCCC(=O)N/N=C/c2ccccc2O)cc1 for me?
# output 4740 nM (active)

Data provenance is ChEMBL document CHEMBL1201862.
